Ref: the array DNA melting data of Ke et al. (doi:10.1101/2024.01.08.574731)

Answer each item with its documented folding enthalpy.
assayOverview: folding enthalpy; higher = less favourable; fluorescence melt of hairpins on a sequencing array, two-state fit
testParameters: sodium 0.088 M
Only the number, expressed in kcal/mol, is required.

Exam item: What value of folding enthalpy has been recorded for this entry: GTCAGCGAAAGCTGTGAC ((((((....)))..)))
Marked response: -10.3

Exam item: What value of folding enthalpy has been recorded for this entry: GTGTTCGAAAGAACTCAC ((((((....)))..)))
Marked response: -13.7

Exam item: What value of folding enthalpy has been recorded for this entry: GAACATGAAAATGTTC ((((((....))))))
Marked response: -28.9

Exam item: What value of folding enthalpy has been recorded for this entry: GATCAATGATTTGATC ((((((....))))))
Marked response: -32.7

Exam item: What value of folding enthalpy has been recorded for this entry: CGATACGGAAACGTGTCG (((.(((....))).)))
Marked response: -51.4

Exam item: What value of folding enthalpy has been recorded for this entry: GCTAAGGGAAACCTCAGC (((.(((....))).)))
Marked response: -27.4

Exam item: What value of folding enthalpy has been recorded for this entry: GAGTAGGGAAACCCACTC ((((.((....)).))))
Marked response: -32

Exam item: What value of folding enthalpy has been recorded for this entry: GGTGCCACGAAAGTGACC (((..(((....))))))
Marked response: -15.5

Exam item: What value of folding enthalpy has been recorded for this entry: GAAACACGAAAGTGATTC (((.(((....))).)))
Marked response: -29.6

Exam item: What value of folding enthalpy has been recorded for this entry: GATCCGGTTCGGATC ((((((...))))))
Marked response: -31.5

Exam item: What value of folding enthalpy has been recorded for this entry: GCGACGTCTCGC ((((....))))
Marked response: -13.3

Exam item: What value of folding enthalpy has been recorded for this entry: GTGTCCCGAAAGGGCAC (((.(((....))))))
Marked response: -26.1

Exam item: What value of folding enthalpy has been recorded for this entry: GATCTCCTGGGAGATC ((((((....))))))
Marked response: -43.3

Exam item: What value of folding enthalpy has been recorded for this entry: GCGACCGGAAACGGTTGC ((.((((....)))).))
Marked response: -41.1

Exam item: What value of folding enthalpy has been recorded for this entry: GTATGCACGAAAGTGTAC (((..(((....))))))
Marked response: -9.37

###

Answer each item with its documented folding enthalpy.
assayOverview: folding enthalpy; higher = less favourable; fluorescence melt of hairpins on a sequencing array, two-state fit
testParameters: sodium 0.088 M
Only the number, expressed in kcal/mol, is required.

Exam item: What value of folding enthalpy has been recorded for this entry: GATCTTCTAAAGATC ((((((...))))))
Marked response: -30.9

Exam item: What value of folding enthalpy has been recorded for this entry: GATCGGCCCCCCGATC ((((((....))))))
Marked response: -37.1

Exam item: What value of folding enthalpy has been recorded for this entry: GGCCCGGCGAAAGCCGCC (((..(((....))))))
Marked response: -7.68

Exam item: What value of folding enthalpy has been recorded for this entry: GTTGACCGAAAGGTGAAC (((.(((....))).)))
Marked response: -27

Exam item: What value of folding enthalpy has been recorded for this entry: GGGCACGGAAACGTGTCC ((.((((....)))).))
Marked response: -40.8

Exam item: What value of folding enthalpy has been recorded for this entry: GATCGTGCAAACGATC ((((((....))))))
Marked response: -33

Exam item: What value of folding enthalpy has been recorded for this entry: GCTCTTCGAAAGAAAGC (((.(((....))))))
Marked response: -20.6

Exam item: What value of folding enthalpy has been recorded for this entry: GACGTACGAAAGTAGGTC (((.(((....))).)))
Marked response: -38.5

Exam item: What value of folding enthalpy has been recorded for this entry: GAACTACGAAAGTAATTC (((.(((....))).)))
Marked response: -17.3

Exam item: What value of folding enthalpy has been recorded for this entry: GATCCTATTCAGGATC ((((((....))))))
Marked response: -44

Exam item: What value of folding enthalpy has been recorded for this entry: GAACTCGGAAACGAGTTC (((((((....)))))))
Marked response: -40.9

Exam item: What value of folding enthalpy has been recorded for this entry: GATCGACTGATCGATC ((((((....))))))
Marked response: -30.5

Exam item: What value of folding enthalpy has been recorded for this entry: GCAGAGGGAAACCTCCAC (..((((....))))..)
Marked response: -13.7

Exam item: What value of folding enthalpy has been recorded for this entry: GATCGATTAGTCGATC ((((((....))))))
Marked response: -54.5

Exam item: What value of folding enthalpy has been recorded for this entry: GTACGCGAAAGCGGCTAC ((((((....)))..)))
Marked response: -10.4

Exam item: What value of folding enthalpy has been recorded for this entry: GATCATACTTATGATC ((((((....))))))
Marked response: -37

Exam item: What value of folding enthalpy has been recorded for this entry: GGAAGCGAAAGCTTCTCC ((((((....)))..)))
Marked response: -9.47

Exam item: What value of folding enthalpy has been recorded for this entry: GGACTCGGAAACGAGCCC ((.((((....)))).))
Marked response: -34.7

Exam item: What value of folding enthalpy has been recorded for this entry: GTTGGCCGAAAGGCTAAC (((.(((....))).)))
Marked response: -28.6

Exam item: What value of folding enthalpy has been recorded for this entry: GCTTACTCGAAAGAGAGC (((..(((....))))))
Marked response: -14.5

Exam item: What value of folding enthalpy has been recorded for this entry: GATGGTGGAAACGCCATC (((((.(....).)))))
Marked response: -44.2

Exam item: What value of folding enthalpy has been recorded for this entry: GCCCATCGAAAGATAGGC (((.(((....))).)))
Marked response: -30.5

Exam item: What value of folding enthalpy has been recorded for this entry: GCTTGGCGAAAGCGCAGC (((..((....))..)))
Marked response: -12.8

Exam item: What value of folding enthalpy has been recorded for this entry: GCCCCGCGAAAGCGACGC ((..(((....)))..))
Marked response: -10.6

Exam item: What value of folding enthalpy has been recorded for this entry: GTGGAAGGAAACTTCCGC (.(((((....))))).)
Marked response: -24.1

Exam item: What value of folding enthalpy has been recorded for this entry: GTCTGCGAAAGCAACGAC ((((((....)))..)))
Marked response: -13.1

Exam item: What value of folding enthalpy has been recorded for this entry: GCTTGGCGAAAGCCATGC ((.((((....)))).))
Marked response: -27.2

Exam item: What value of folding enthalpy has been recorded for this entry: GCAATACGAAAGTACTGC (((.(((....))).)))
Marked response: -31.3

Exam item: What value of folding enthalpy has been recorded for this entry: GCATGTCCGAAAGGATGC (((..(((....))))))
Marked response: -16.4

Exam item: What value of folding enthalpy has been recorded for this entry: GATCGAAAGTTCGATC ((((((....))))))
Marked response: -36.2

Exam item: What value of folding enthalpy has been recorded for this entry: GATCGAATCATCGATC ((((((....))))))
Marked response: -35.7

Exam item: What value of folding enthalpy has been recorded for this entry: GCCGAGCGAAAGCTGGC (((.(((....))))))
Marked response: -25.1

Exam item: What value of folding enthalpy has been recorded for this entry: GATCCCCCTAGGGATC ((((((....))))))
Marked response: -32.6

Exam item: What value of folding enthalpy has been recorded for this entry: GCGGGCGGAAACGCCCAC (.(((((....))))).)
Marked response: -8.92

Exam item: What value of folding enthalpy has been recorded for this entry: GCCGGTACGAAAGTAGGC (((..(((....))))))
Marked response: -24.7
